# System: Balb/c splenic B cells
# assay protocol: B cell activation and proliferation assay (Alamar Blue)
# Type: cell-based
# run conditions: Mus musculus, read-out: B cell proliferation EC50
pEC50: −log10 of the molar value.
quantity measured: pEC50

# annotated cases, reported pEC50 shown
line notation: COc1cc(-c2nn(Cc3cc4cccc(C)c4c(=O)n3-c3ccccc3F)c3ncnc(N)c23)ccc1Cl
pEC50: > 5.00

line notation: Cc1cccc2cc(Cn3nc(-c4cn[nH]c4)c4c(N)ncnc43)n(-c3ccccc3F)c(=O)c12
pEC50: > 6.00

line notation: Cc1cccc2cc(Cn3nc(-c4cc(O)cc(F)c4)c4c(N)ncnc43)n(C3CCC3)c(=O)c12
pEC50: > 7.00

line notation: Cc1cccc2cc(Cn3nc(-c4cc(O)cc(F)c4)c4c(N)ncnc43)n(C(C)C)c(=O)c12
pEC50: > 7.00

line notation: CCc1ccccc1-n1c(Cn2nc(I)c3c(N)ncnc32)cc2cccc(C)c2c1=O
pEC50: > 6.00

Form field: reported pEC50 of CC(=O)Nc1nc2ccc(-c3nn(Cc4cc5cccc(C)c5c(=O)n4-c4cccc(F)c4)c4ncnc(N)c34)cc2s1
> 7.00

Form field: reported pEC50 of Cc1cccc2cc(Cn3nc(-c4ccc(F)c(O)c4)c4c(N)ncnc43)n(-c3ccccc3F)c(=O)c12
> 6.00

Form field: reported pEC50 of C=Cc1nn(Cc2cc3cccc(C)c3c(=O)n2-c2ccccc2C)c2ncnc(N)c12
> 7.00

Form field: reported pEC50 of Cc1ccccc1-n1c(Cn2nc(Cl)c3c(N)ncnc32)cc2cccc(C)c2c1=O
> 6.00

Form field: reported pEC50 of CC(C)n1c(Cn2nc(-c3cccc(O)c3)c3c(N)ncnc32)cc2cccc(Cl)c2c1=O
> 7.00
